These entries and their values trace back to patent US20170052184A1.

target of assay: T1, HCV bt-141-161 (Peptide 2, HCVc 141-161) (Hepatitis C virus (numbering per HCV-1), biotin (carboxy-terminal per; N-terminal per))
T1 peptide: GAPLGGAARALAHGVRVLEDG
method summary: EIA, captured mAb + biotin peptide
observation type: Reactivity (OD 492 nm) (OD units)
Just the number please, in OD units, no unit attached.

# count of solved cases: 4
| binder | Reactivity (OD 492 nm) [OD units] |
| --- | --- |
| HCV 208A-638 (antibody, V domains shown) VH: QGQLQQPGAEFVKPGASLKLSCRASGYTFTSYWIHWVKQRPGQGLEWIGEVDPSDSYINQNEKFRGKATLTVDKSSSTAYMQLGSLTSEDSAVYYCARHYYGVLDSWGQGTALTVSS VL: QIVLTQSPTIMSASLGERVTMTCTASSSVSSSYLHWFQQKPGSSPKLWIYSTSNLASGVPPRFSGSGSGTSYSLSISSVEAEDVATYYCLQFHRSPWTFGGGAKLEIKR | 2.96 |
| HCV 208A-207 (antibody, V domains shown) VH: QGQLQQPGAEFVKPGASLKLSCRASGYTFTSYWIHWVKQRPGQGLEWIGEIDPSDSYINQNQKFRGKATLTVDKSSSTAYMELSGLTSEDSAVYYCARHYYGVLDSWGQGTTLTVSS VL: DIVLTQSPATLSVTPGDRVSLSCRASQRIYNYLHWYQQKSHESPRLLTKYASQSISGIPSRFSGSGSGTDFILTINSVETEDFGMYFCQQSNSWPLTFGAGTKLELRR | 0.17 |
| HCV 208A-133 (antibody, V domains shown) VH: QLQQSGPVLVGPGASVMISCKTSGYTFTENAMHWVEQSHGKSLEWIGGVNPNNGDTIFNQKFKGKATLTVDKSSSTAFMEFRSLTSEESTVYYCVRRELDFFDYWGQGTSVTVSS VL: DIVLTQSPASLAVSLGQRATISCRASQSVSTSRYSYMHWYQQKPGQPPKLLIKYASNLESGVPARFSGSGSGTDFTLNIHPVAEEDTATYYCQHSWEFPFTFGSGTKLEIKR | 3.68 |
| HCV 208B-174 (antibody, V domains shown) VH: EVKLEESGGGLVQPGGSMKLSCVASGFSFSSYWMSWVRQSPEKGLDWVAEIRLRSDNYATHYAESVKGRFTISRDDSISRLYLQMNTLRAEDTGIYYCTWMTYWGQGTLVTVSA VL: QNVLTQSPAIMSASPGEKVTMSCSASSSVTYMFWYQLKPESSPRLLIYDTSNLASGVPVRFSGSGSGTSYSLTISRMEAEDAATYYCQEWSSYPLTFGAGTKLDLKR | 1.26 |

Next up:
Param item = HCV 208A-210 (antibody, V domains shown) VH: QVQLQQSGPELVKPGASMRISCKASGYTFTSYYVHWIKQRPGQGLEWIGCIYPGDVNTDYNEKFKGKATLTADKSSSTAYMQVSTLTSEDSAIYFCVLYYYGSFAYWGQGTLVTVSA VL: EIVLTQSPAITAASLGQNVTITCRASSSVSYMHWYRQKSGTSPQLWIYEISRRASGVPARFRASGSGTSYSLTISSMEAEDAAIYYCQQWNYPLTFGAGTKLEVKR ; retrieve measured Reactivity (OD 492 nm).
1.15
